Origin of measurements: patent US20130150363A1

System: HT29 colon carcinoma cells
assay-text: Cell growth inhibition (CellTiter-Glo), HT29
Format: cell-based
experimental-conditions: Homo sapiens, HT-29, 72 h, colon_HT-29, −HGF, 3 days
pIC50: −log10 of the molar value.
measured-attribute: pIC50

• C#Cc1cccc(Nc2ncnc3cc(OCCOC)c(OCCOC)cc23)c1 [Erlotinib] = < 5.00

###

System: NCI-H1993 lung carcinoma cells
assay-text: Cell growth inhibition (CellTiter-Glo), NCI-H1993
Assay type: cell-based
experimental-conditions: Homo sapiens, NCI-H1993, 72 h, lung_H1993, +HGF (2 ng/mL), 3 days
measured-attribute: IC50

- C#Cc1cccc(Nc2ncnc3cc(OCCOC)c(OCCOC)cc23)c1 [Erlotinib]: > 10 µM
- CS(=O)(=O)CCNCc1ccc(-c2ccc3ncnc(Nc4ccc(OCc5cccc(F)c5)c(Cl)c4)c3c2)o1 [Lapatinib]: > 10 µM
